system: NCI-H661; experiment: relative viability (nuclei count vs DMSO), 5 days (fraction); higher = more cells survive; settings: first compound 0.05 µM
readout name: relative viability
Give the value as a plain number.

>  <compound>
Nc1ccn([C@@H]2O[C@H](CO)[C@@H](O)[C@@H]2O)c(=O)n1 [Cytarabine] + C[C@]1(O)C[C@@H](c2nc(-c3ccc4ccc(-c5ccccc5)nc4c3)c3c(N)nccn32)C1 [Linsitinib] (partner 1 µM)

>  <readout name>
relative viability

>  <numeric readout>
0.445

$$$$

Turning now to a further compound:
Q: Give relative viability; test system NCI-H661; compound COc1cc2nccc(Oc3ccc(NC(=O)Nc4cc(C)on4)c(Cl)c3)c2cc1OC [Tivozanib] + CS(=O)(=O)CCNCc1ccc(-c2ccc3ncnc(Nc4ccc(OCc5cccc(F)c5)c(Cl)c4)c3c2)o1 [Lapatinib] (partner 2 µM)
A: 0.46

---

tested on: NCI-H460; experiment: relative viability (nuclei count vs DMSO), 5 days (fraction); higher = more cells survive; settings: first compound 0.05 µM
readout name: relative viability
Give the value as a plain number.

Study these solved cases before continuing.
>  <molecule>
COc1cc2nccc(Oc3ccc(NC(=O)Nc4cc(C)on4)c(Cl)c3)c2cc1OC [Tivozanib] + NC(=O)Nc1cc(-c2cccc(F)c2)sc1C(=O)N[C@H]1CCCNC1 [AZD7762] (partner 0.2 µM)

>  <relative viability>
0.651

$$$$
>  <molecule>
COc1cc2nccc(Oc3ccc(NC(=O)Nc4cc(C)on4)c(Cl)c3)c2cc1OC [Tivozanib] + Cc1cc(Nc2cc(N3CCN(C)CC3)nc(Sc3ccc(NC(=O)C4CC4)cc3)n2)n[nH]1 [Tozasertib] (partner 0.1 µM)

>  <relative viability>
0.536

$$$$
>  <molecule>
COc1cc2nccc(Oc3ccc(NC(=O)Nc4cc(C)on4)c(Cl)c3)c2cc1OC [Tivozanib] + C[C@@H](Oc1cc(-c2cnn(C3CCNCC3)c2)cnc1N)c1c(Cl)ccc(F)c1Cl [Crizotinib] (partner 1 µM)

>  <relative viability>
0.96

$$$$

Turning now to a further molecule:
Q: Report measured relative viability; entry is COc1cc2nccc(Oc3ccc(NC(=O)Nc4cc(C)on4)c(Cl)c3)c2cc1OC [Tivozanib] + Cc1nc(Nc2ncc(C(=O)Nc3c(C)cccc3Cl)s2)cc(N2CCN(CCO)CC2)n1 [Dasatinib] (partner 0.075 µM)
A: 0.549

---

Parameter: relative viability. Scope: all listed entries.
tested on: 201T; assay: relative viability (nuclei count vs DMSO), 5 days (fraction); higher = more cells survive; details: first compound 0.5 µM

Study these solved cases before continuing.
>  <compound>
COc1cc2nccc(Oc3ccc(NC(=O)Nc4cc(C)on4)c(Cl)c3)c2cc1OC [Tivozanib] + CC(=O)c1c(C)c2cnc(Nc3ccc(N4CCNCC4)cn3)nc2n(C2CCCC2)c1=O [Palbociclib] (partner 0.5 µM)

>  <system under test>
201T

>  <readout name>
relative viability

>  <result>
0.357

$$$$
>  <compound>
COc1cc2nccc(Oc3ccc(NC(=O)Nc4cc(C)on4)c(Cl)c3)c2cc1OC [Tivozanib] + O=C(CCCCCCC(=O)Nc1ccccc1)NO [Vorinostat] (partner 1 µM)

>  <system under test>
201T

>  <readout name>
relative viability

>  <result>
0.974

$$$$
>  <compound>
COc1cc2nccc(Oc3ccc(NC(=O)Nc4cc(C)on4)c(Cl)c3)c2cc1OC [Tivozanib] + CS(=O)(=O)N1CCN(Cc2cc3nc(-c4cccc5[nH]ncc45)nc(N4CCOCC4)c3s2)CC1 [Pictilisib] (partner 1 µM)

>  <system under test>
201T

>  <readout name>
relative viability

>  <result>
0.632

$$$$
>  <compound>
Nc1ccn([C@@H]2O[C@H](CO)[C@@H](O)[C@@H]2O)c(=O)n1 [Cytarabine] + N=C(N)NC(=N)NCCc1ccccc1 [Phenformin] (partner 250 µM)

>  <system under test>
201T

>  <readout name>
relative viability

>  <result>
0.356

$$$$

Q: Report measured relative viability; entry is Nc1ccn([C@@H]2O[C@H](CO)[C@@H](O)[C@@H]2O)c(=O)n1 [Cytarabine] + CS(=O)(=O)N1CCN(Cc2cc3nc(-c4cccc5[nH]ncc45)nc(N4CCOCC4)c3s2)CC1 [Pictilisib] (partner 1 µM)
A: 0.416

---

tested on: NCI-H522; experiment: relative viability (nuclei count vs DMSO), 5 days (fraction); higher = more cells survive; conditions: first compound 1.265 µM
Parameter: relative viability. Scope: all listed entries.
Give the value as a plain number.

>  <compound>
Cc1sc2c(c1C)C(c1ccc(Cl)cc1)=N[C@@H](CC(=O)OC(C)(C)C)c1nnc(C)n1-2 [JQ1] + Nc1ncn([C@H]2C[C@H](O)[C@@H](CO)O2)c(=O)n1 [Decitabine] (partner 2 µM)

>  <readout name>
relative viability

>  <numeric readout>
0.473

$$$$
>  <compound>
Cc1sc2c(c1C)C(c1ccc(Cl)cc1)=N[C@@H](CC(=O)OC(C)(C)C)c1nnc(C)n1-2 [JQ1] + Cc1nc(Nc2ncc(C(=O)Nc3c(C)cccc3Cl)s2)cc(N2CCN(CCO)CC2)n1 [Dasatinib] (partner 0.075 µM)

>  <readout name>
relative viability

>  <numeric readout>
0.575

$$$$
>  <compound>
Cc1sc2c(c1C)C(c1ccc(Cl)cc1)=N[C@@H](CC(=O)OC(C)(C)C)c1nnc(C)n1-2 [JQ1] + Nc1nc2[nH]cc(CCc3ccc(C(=O)N[C@@H](CCC(=O)O)C(=O)O)cc3)c2c(=O)[nH]1 [Pemetrexed] (partner 0.2 µM)

>  <readout name>
relative viability

>  <numeric readout>
0.59

$$$$

Q: Report measured relative viability; entry is Cc1sc2c(c1C)C(c1ccc(Cl)cc1)=N[C@@H](CC(=O)OC(C)(C)C)c1nnc(C)n1-2 [JQ1] + NC(=O)Nc1cc(-c2cccc(F)c2)sc1C(=O)N[C@H]1CCCNC1 [AZD7762] (partner 0.2 µM)
A: 0.52

Q: Report measured relative viability; entry is Cc1sc2c(c1C)C(c1ccc(Cl)cc1)=N[C@@H](CC(=O)OC(C)(C)C)c1nnc(C)n1-2 [JQ1] + CC(=O)Nc1cccc(-n2c(=O)n(C3CC3)c(=O)c3c(Nc4ccc(I)cc4F)n(C)c(=O)c(C)c32)c1 [Trametinib] (partner 0.02 µM)
A: 0.482

---

tested on: NCI-H2228; assay: relative viability (nuclei count vs DMSO), 5 days (fraction); higher = more cells survive; conditions: first compound 0.04 µM
readout name: relative viability

Study these solved cases before continuing.
>  <molecule>
Cc1sc2c(c1C)C(c1ccc(Cl)cc1)=N[C@@H](CC(=O)OC(C)(C)C)c1nnc(C)n1-2 [JQ1] + CC(C)C[C@H](NC(=O)[C@H](Cc1ccccc1)NC(=O)c1cnccn1)B(O)O [Bortezomib] (partner 0.002 µM)

>  <system under test>
NCI-H2228

>  <result>
0.764

$$$$
>  <molecule>
Cc1sc2c(c1C)C(c1ccc(Cl)cc1)=N[C@@H](CC(=O)OC(C)(C)C)c1nnc(C)n1-2 [JQ1] + Nc1nc2[nH]cc(CCc3ccc(C(=O)N[C@@H](CCC(=O)O)C(=O)O)cc3)c2c(=O)[nH]1 [Pemetrexed] (partner 0.2 µM)

>  <system under test>
NCI-H2228

>  <result>
0.362

$$$$
>  <molecule>
Cc1sc2c(c1C)C(c1ccc(Cl)cc1)=N[C@@H](CC(=O)OC(C)(C)C)c1nnc(C)n1-2 [JQ1] + CS(=O)(=O)CCNCc1ccc(-c2ccc3ncnc(Nc4ccc(OCc5cccc(F)c5)c(Cl)c4)c3c2)o1 [Lapatinib] (partner 2 µM)

>  <system under test>
NCI-H2228

>  <result>
0.902

$$$$
>  <molecule>
Cc1sc2c(c1C)C(c1ccc(Cl)cc1)=N[C@@H](CC(=O)OC(C)(C)C)c1nnc(C)n1-2 [JQ1] + O=C(CCCCCCC(=O)Nc1ccccc1)NO [Vorinostat] (partner 1 µM)

>  <system under test>
NCI-H2228

>  <result>
0.605

$$$$
>  <molecule>
Cc1sc2c(c1C)C(c1ccc(Cl)cc1)=N[C@@H](CC(=O)OC(C)(C)C)c1nnc(C)n1-2 [JQ1] + Cc1cc(Nc2cc(N3CCN(C)CC3)nc(Sc3ccc(NC(=O)C4CC4)cc3)n2)n[nH]1 [Tozasertib] (partner 0.1 µM)

>  <system under test>
NCI-H2228

>  <result>
0.286

$$$$

Turning now to a further molecule:
Q: Report measured relative viability; entry is Cc1sc2c(c1C)C(c1ccc(Cl)cc1)=N[C@@H](CC(=O)OC(C)(C)C)c1nnc(C)n1-2 [JQ1] + N=C(N)NC(=N)NCCc1ccccc1 [Phenformin] (partner 250 µM)
A: 0.305

---

system: H3255; assay: relative viability (nuclei count vs DMSO), 5 days (fraction); higher = more cells survive; conditions: first compound 0.5 µM
Parameter: relative viability. Scope: all listed entries.
Give the value as a plain number.

>  <compound>
Nc1ccn([C@@H]2O[C@H](CO)[C@@H](O)[C@@H]2O)c(=O)n1 [Cytarabine] + CC(=O)c1c(C)c2cnc(Nc3ccc(N4CCNCC4)cn3)nc2n(C2CCCC2)c1=O [Palbociclib] (partner 0.5 µM)

>  <relative viability>
0.261

$$$$
>  <compound>
COc1cc2nccc(Oc3ccc(NC(=O)Nc4cc(C)on4)c(Cl)c3)c2cc1OC [Tivozanib] + CC(=O)Nc1cccc(-n2c(=O)n(C3CC3)c(=O)c3c(Nc4ccc(I)cc4F)n(C)c(=O)c(C)c32)c1 [Trametinib] (partner 0.02 µM)

>  <relative viability>
0.59

$$$$
>  <compound>
Nc1ccn([C@@H]2O[C@H](CO)[C@@H](O)[C@@H]2O)c(=O)n1 [Cytarabine] + Cc1cc(Nc2cc(N3CCN(C)CC3)nc(Sc3ccc(NC(=O)C4CC4)cc3)n2)n[nH]1 [Tozasertib] (partner 0.1 µM)

>  <relative viability>
0.488

$$$$
>  <compound>
Nc1ccn([C@@H]2O[C@H](CO)[C@@H](O)[C@@H]2O)c(=O)n1 [Cytarabine] + CS(=O)(=O)CCNCc1ccc(-c2ccc3ncnc(Nc4ccc(OCc5cccc(F)c5)c(Cl)c4)c3c2)o1 [Lapatinib] (partner 2 µM)

>  <relative viability>
0.188

$$$$
>  <compound>
Nc1ccn([C@@H]2O[C@H](CO)[C@@H](O)[C@@H]2O)c(=O)n1 [Cytarabine] + CC1(C)CCC(c2ccc(Cl)cc2)=C(CN2CCN(c3ccc(C(=O)NS(=O)(=O)c4ccc(N[C@H](CCN5CCOCC5)CSc5ccccc5)c(S(=O)(=O)C(F)(F)F)c4)cc3)CC2)C1 [Navitoclax] (partner 0.5 µM)

>  <relative viability>
0.332

$$$$

Q: Give relative viability; test system H3255; compound Nc1ccn([C@@H]2O[C@H](CO)[C@@H](O)[C@@H]2O)c(=O)n1 [Cytarabine] + O=C(CCCCCCC(=O)Nc1ccccc1)NO [Vorinostat] (partner 1 µM)
A: 0.878

Q: Give relative viability; test system H3255; compound COc1cc2nccc(Oc3ccc(NC(=O)Nc4cc(C)on4)c(Cl)c3)c2cc1OC [Tivozanib] + Nc1ncn([C@H]2C[C@H](O)[C@@H](CO)O2)c(=O)n1 [Decitabine] (partner 2 µM)
A: 0.77

Q: Give relative viability; test system H3255; compound Nc1ccn([C@@H]2O[C@H](CO)[C@@H](O)[C@@H]2O)c(=O)n1 [Cytarabine] + C[C@]1(O)C[C@@H](c2nc(-c3ccc4ccc(-c5ccccc5)nc4c3)c3c(N)nccn32)C1 [Linsitinib] (partner 1 µM)
A: 0.674

Q: Give relative viability; test system H3255; compound Nc1ccn([C@@H]2O[C@H](CO)[C@@H](O)[C@@H]2O)c(=O)n1 [Cytarabine] + C[C@@H](Oc1cc(-c2cnn(C3CCNCC3)c2)cnc1N)c1c(Cl)ccc(F)c1Cl [Crizotinib] (partner 1 µM)
A: 0.667
